Tested on: CAKI-1 renal
ASSAY_SUMMARY: NCI-60 one-dose screen, 48 h
DETAILS: 10 µM unless noted
This is part of a sample that, as a whole, favours compounds with a hit. Of some 83,000 tested, about 20% had one in any assay. Active and inactive are the calls of the source. How the source made its calls: active means growth percent below 10; inactive means the rest.
Classes used: y for active, n for inactive

| COMPOUND | TGT | CAT |
| --- | --- | --- |
| O=[N+]([O-])/C(=C/C=C/c1ccccc1)c1ccccc1 | CAKI-1 renal | n |
| CN1CCN(c2ccc(NC(=O)c3cncnc3Nc3ccc(OCc4ccccn4)c(Cl)c3)cc2)CC1 | CAKI-1 renal | n |
| CCC(C)N(c1ccc(Cl)cc1)c1nc(-c2ccc(Br)cc2)cs1 (stereo not given) | CAKI-1 renal | n |
| O=C(/C=C(/C=C/c1cccc2[nH]ccc12)OB(F)F)/C=C/c1cccc2[nH]ccc12 | CAKI-1 renal | y |
| OB(O)c1cccc(-c2nc3ccc4[nH]ncc4c3c3c2CCCC3)c1 | CAKI-1 renal | y |
| Fc1cc(F)cc(C(c2c[nH]c3ccccc23)c2c[nH]c3ccccc23)c1 | CAKI-1 renal | n |
| O=C(NCc1ccccc1)Nc1ccccc1CNc1nc(Nc2ccc(OCCN3CCCC3)cc2)ncc1Cl | CAKI-1 renal | n |
| CCCCCOc1ccc(C(=O)/C(Br)=C/C(=O)O)cc1 | CAKI-1 renal | n |
| O=C1/C(=C/c2ccc(Cl)cc2)COc2ccc(O)cc21 | CAKI-1 renal | n |
| O=C1NC(=O)c2c1c1c3ccccc3ccc1c1[nH]c3ccc(Br)cc3c21 | CAKI-1 renal | n |
| CCOC(=O)c1c(NC(=O)c2ccc(C(C)C)cc2)sc2c(CN(C)C)c(O)ccc12 | CAKI-1 renal | n |
| O=C(O)/C(=C\c1ccc(Cl)cc1)c1ccc(Cl)cc1 | CAKI-1 renal | n |
| CC1=Nc2cnc(Nc3ccc(OCCN4CCCCC4)cc3)nc2Nc2ccccc21 | CAKI-1 renal | n |
| COC(=O)c1cc(-c2ccc(S(C)(=O)=O)cc2)[nH]c1N/N=C/c1c(Cl)cccc1Cl | CAKI-1 renal | n |
| N#CCSc1nnc2n(Cc3ccccc3)c(=O)c3c4c(sc3n12)CCCC4 | CAKI-1 renal | n |
| CCN1C(=O)N(CC)C2C1NN=c1s/c(=C\c3cccc([N+](=O)[O-])c3)c(=O)n12 (stereo not given) | CAKI-1 renal | n |
| Cc1nnc(-n2c(O)cc(=O)n(-c3ccccc3)c2=S)nc1/C=C/c1ccc(N(C)C)cc1 | CAKI-1 renal | n |
| Cc1ccc2c3c(c(=O)[nH]c2c1)C1(C(C#N)=C(N)O3)c2cc(Br)ccc2-c2ccc(Br)cc21 | CAKI-1 renal | y |
| O=C(CI)NC1Oc2ccccc2-c2oc(=O)c(-c3ccccc3)cc21 (stereo not given) | CAKI-1 renal | y |
| COc1cc(C(=O)n2nc(N3CCN(C)CC3)c3cc(N)ccc32)cc(OC)c1OC | CAKI-1 renal | n |
